Parameter: binding signal. Scope: all listed entries.
Molecular target: OsWOX13 (Oryza sativa, UniProt Q5QMM3 1-267)
Sequence: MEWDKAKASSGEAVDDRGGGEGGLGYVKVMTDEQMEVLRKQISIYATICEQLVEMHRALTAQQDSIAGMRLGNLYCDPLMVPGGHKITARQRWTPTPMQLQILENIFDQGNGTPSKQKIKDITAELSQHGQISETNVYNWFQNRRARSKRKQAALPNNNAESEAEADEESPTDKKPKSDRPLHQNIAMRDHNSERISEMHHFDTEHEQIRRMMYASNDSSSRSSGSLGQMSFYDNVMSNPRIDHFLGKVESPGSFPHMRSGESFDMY
Assay: protein-binding microarray (RPBM); PBS, 2% BSA, 51.3 ng/ul salmon testes DNA, 50 uM zinc acetate, 200 nM TF, 25 C, 1 h; high values mean tight binding
Conditions: protein: recombinant; tags: N-terminal polyhistidine and DsRed monomer fusion (pET32a); label: CyDye5-dUTP incorporated in the synthesized complementary strand; 3' TTTTT single-stranded linker to array surface; dsDNA, one strand shown
The full ranking holds about 35,000 sequences; the median of “fluorescence intensity (a.u.)” is about 10,000, and the highest 2% start at about 52,000. The full list was thinned out, with the highest values kept by preference.

Past entries and their recorded results:
Chain	Reported Measurement
CGGATTAATTAGGCTTAATAAATTCATCTCGCAGTTTCCTCGGAGTCACCTAGTGCAG	50800 fluorescence intensity (a.u.)
CGAAATTAATTAGCGAAATTAATTAACGCTTTACACAAGGCGGAGTCACCTAGTGCAG	64900 fluorescence intensity (a.u.)
TTTTAGGTTAATTACTTCTATTGGTCAACTCAATATGCAGCGGAGTCACCTAGTGCAG	5660 fluorescence intensity (a.u.)
TTTTGTGATAGATTTTATATTAAATATATAGTTTTGTTTTCGGAGTCACCTAGTGCAG	23400 fluorescence intensity (a.u.)
TGTGATTGAGGGAGTTAATTAGGACAAGTTAATAAGTGGCCGGAGTCACCTAGTGCAG	64500 fluorescence intensity (a.u.)

IN: Report binding signal, nothing else, for this sequence: GATGAAACATATATTGACTGTAACATGTAGATTACATGATCGGAGTCACCTAGTGCAG
OUT: 6110 fluorescence intensity (a.u.)

IN: Report binding signal, nothing else, for this sequence: AAGAGATTGGAATCGGGCGTACCGGAGAACTTTGGAGATGCGGAGTCACCTAGTGCAG
OUT: 12100 fluorescence intensity (a.u.)

IN: Report binding signal, nothing else, for this sequence: TTTTATCTCACCAATCAATTTAATTTCTTTATTTATTTTCCGGAGTCACCTAGTGCAG
OUT: 6870 fluorescence intensity (a.u.)
